B1: FAM107A (parent)
chain: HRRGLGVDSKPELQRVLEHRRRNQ

Variants of: B1
procedure summary: protein stability index of a GFP-peptide fusion (GPS, HEK-293T) (PSI 1-6); higher = more stable;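 note: lentivirally expressed fusions sorted by FACS into six bins by GFP to DsRed ratio, PSI derived from sequencing read proportions per bin multiplied by bin number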
reported conditions: c terminus: a fixed tail appended
I'd appreciate it if you could supply protein stability index values for the items below.
Answers are plain numbers.

>>> value_reported("HRRGLGVDEKPELQRVLEHRRRNQ [S9E]")
4.39
>>> value_reported("HRRGLGVDSKPELQRVLEHRMRNQ [R21M]")
4.09
>>> value_reported("HRRGLGVDSKPELQRLLEHRRRNQ [V16L]")
4.03
>>> value_reported("HRRGIGVDSKPELQRVLEHRRRNQ [L5I]")
3.15
>>> value_reported("HRRGLGVDSKPELQRVLSHRRRNQ [E18S]")
2.71
>>> value_reported("HRRGLMVDSKPELQRVLEHRRRNQ [G6M]")
4.25

# input What protein stability index value was documented for this variant, HRRGLGVDSKPELQRVLEMRRRNQ [H19M] ?
# output 4.13
